- System Name: COVID-19 S1 Spike Protein Mutant N439K (SARS-CoV-2), P0DTC2
- Assay Comment: FP direct binding
pKd: −log10 of the molar value. Non-standard residues stand in square brackets, D forms with d. No end group written: not given here. Sar = CNCC(=O)O
Quick reference: pKd of the listed items.

# Binder, pKd
records = [
    ("ACEDHDWVYCSTCA[Sar][Sar][Sar][Sar][Sar][Sar][KFl] (cysteine pairing not given here) [BCY15299]", 6.27),
    ("ACRQSQCDWWAIRSFCA[Sar][Sar][Sar][Sar][Sar][Sar][KFl] (cysteine pairing not given here) [BCY15324]", 6.28),
]
